Recorded values, source ChEMBL document CHEMBL6182949.

Measured Cmax by item
test: Cmax in Sprague-Dawley rat at 10 mg/kg, po measured up to 24 hrs by LC-MS/MS analysis; assay type: ADME, organism-based; settings: in vivo
measured property: Cmax (ng/mL)

INSERT INTO assay_data (compound, measured_property, unit_label, measurement) VALUES
  ('Cn1c(=O)n(C2CCC(=O)NC2=O)c2cccc(C#CCO[C@H]3CC[C@H](CN4CCC5(CC4)Cc4cc(NC(=O)c6cnn7cc(F)cnc67)c(N6CCC(CO)CC6)cc4O5)CC3)c21 (some centres undefined)', 'Cmax', 'ng/mL', 628),
  ('Cn1c(=O)n(C2CCC(=O)NC2=O)c2cccc(C#CCO[C@H]3CC[C@H](CN4CCC5(CC4)Cc4cc(NC(=O)c6coc7cccnc67)c(N6CCC(CO)CC6)cc4O5)CC3)c21 (some centres undefined)', 'Cmax', 'ng/mL', 613),
  ('Cn1c(=O)n(C2CCC(=O)NC2=O)c2cccc(C#CCO[C@H]3CC[C@H](CN4CCC5(CC4)Cc4cc(NC(=O)c6cnn7cccnc67)c(N6CCC(O)CC6)cc4O5)CC3)c21 (some centres undefined)', 'Cmax', 'ng/mL', 352),
  ('Cn1c(=O)n(C2CCC(=O)NC2=O)c2cccc(C#CCO[C@H]3CC[C@H](CN4CCC5(CC4)Cc4cc(NC(=O)c6cnn7cccnc67)c(N6CCC(CO)CC6)cc4O5)CC3)c21 (some centres undefined)', 'Cmax', 'ng/mL', 261);

* * *

experiment: Cmax in male C57BL/6 mouse at 2 mg/kg, iv measured up to 24 hrs by LC-MS/MS analysis; assay type: ADME, organism-based; settings: in vivo
Measured Cmax by item
measured property: Cmax

INSERT INTO measurements (compound, measured_property, measurement) VALUES
  ('Cn1c(=O)n(C2CCC(=O)NC2=O)c2cccc(C#CCO[C@H]3CC[C@H](CN4CCC5(CC4)Cc4cc(NC(=O)c6coc7cccnc67)c(N6CCC(CO)CC6)cc4O5)CC3)c21 (stereo not given in full)', 'Cmax', '1870 ng/mL'),
  ('Cn1c(=O)n(C2CCC(=O)NC2=O)c2cccc(C#CCO[C@H]3CC[C@H](CN4CCC5(CC4)Cc4cc(NC(=O)c6cnn7cccnc67)c(N6CCC(CO)CC6)cc4O5)CC3)c21 (stereo not given in full)', 'Cmax', '2000 ng/mL'),
  ('Cn1c(=O)n(C2CCC(=O)NC2=O)c2cccc(C#CCO[C@H]3CC[C@H](CN4CCC5(CC4)Cc4cc(NC(=O)c6cnn7cccnc67)c(N6CCC(O)CC6)cc4O5)CC3)c21 (stereo not given in full)', 'Cmax', '2780 ng/mL'),
  ('Cn1c(=O)n(C2CCC(=O)NC2=O)c2cccc(C#CCO[C@H]3CC[C@H](CN4CCC5(CC4)Cc4cc(NC(=O)c6cnn7cc(F)cnc67)c(N6CCC(CO)CC6)cc4O5)CC3)c21 (stereo not given in full)', 'Cmax', '1380 ng/mL'),
  ('Cn1c(=O)n(C2CCC(=O)NC2=O)c2cccc(C#CCO[C@H]3CC[C@H](CN4CCC5(CC4)Cc4cc(NC(=O)c6cnc7cccnn67)c(N6CCC(CO)CC6)cc4O5)CC3)c21 (stereo not given in full)', 'Cmax', '1230 ng/mL');

* * *

target: Protein cereblon/Interleukin-1 receptor-associated kinase 4 (Homo sapiens, UniProt Q9NWZ3+Q96SW2); experiment: PROTAC activity at CRBN/IRAK4 in human THP-1 cells assessed as induction of IRAK4 degradation incubated for 24 hrs by HiBiT lytic reagent based analysis relative to control; type: cell-based
Sequence (Q96SW2 whole entry, looked up): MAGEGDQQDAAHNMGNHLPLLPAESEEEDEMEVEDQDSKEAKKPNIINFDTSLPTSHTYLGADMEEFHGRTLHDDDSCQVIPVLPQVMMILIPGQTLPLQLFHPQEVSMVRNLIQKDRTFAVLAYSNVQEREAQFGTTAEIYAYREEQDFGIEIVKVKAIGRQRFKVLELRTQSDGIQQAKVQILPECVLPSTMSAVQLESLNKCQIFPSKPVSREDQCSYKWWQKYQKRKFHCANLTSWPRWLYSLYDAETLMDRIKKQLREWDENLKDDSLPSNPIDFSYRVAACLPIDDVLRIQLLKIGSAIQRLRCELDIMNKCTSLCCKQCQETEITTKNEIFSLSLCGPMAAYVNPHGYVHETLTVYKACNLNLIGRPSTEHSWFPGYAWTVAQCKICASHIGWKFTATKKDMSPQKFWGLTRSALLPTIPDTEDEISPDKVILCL
Sequence (Q9NWZ3 whole entry, looked up): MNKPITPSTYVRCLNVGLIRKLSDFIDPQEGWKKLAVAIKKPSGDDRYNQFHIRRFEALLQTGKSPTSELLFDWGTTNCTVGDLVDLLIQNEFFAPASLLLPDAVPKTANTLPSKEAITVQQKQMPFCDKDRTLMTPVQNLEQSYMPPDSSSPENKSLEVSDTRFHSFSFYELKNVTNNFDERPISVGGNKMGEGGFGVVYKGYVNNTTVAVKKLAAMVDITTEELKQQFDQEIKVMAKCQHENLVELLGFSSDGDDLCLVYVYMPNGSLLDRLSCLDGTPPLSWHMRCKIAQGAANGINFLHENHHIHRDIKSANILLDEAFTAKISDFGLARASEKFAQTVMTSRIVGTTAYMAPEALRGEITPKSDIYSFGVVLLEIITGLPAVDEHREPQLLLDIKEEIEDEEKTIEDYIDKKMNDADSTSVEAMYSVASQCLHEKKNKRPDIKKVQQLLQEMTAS
measured property: Emax (%)

INSERT INTO results (compound, measurement) VALUES
  ('Cn1c(=O)n(C2CCC(=O)NC2=O)c2cccc(C#CCOC3CCN(CCN4CCC5(CC4)Cc4cc(NC(=O)c6cnn7cccnc67)c(N6CCC(CO)CC6)cc4O5)CC3)c21 (stereo not drawn)', 88),
  ('Cn1c(=O)n(C2CCC(=O)NC2=O)c2cccc(C#CCO[C@H]3CC[C@H](CN4CCC5(CC4)Cc4cc(NC(=O)c6cnn7cc(C#N)cnc67)c(N6CCC(CO)CC6)cc4O5)CC3)c21 (stereo partly drawn)', 89),
  ('Cn1c(=O)n(C2CCC(=O)NC2=O)c2cccc(CN3CCC(CCN4CCC5(CC4)Cc4cc(NC(=O)c6cnn7cccnc67)c(N6CCC(CO)CC6)cc4O5)CC3)c21 (stereo not drawn)', 92);
